Origin of measurements: PubChem BioAssay AID1918942

Tested on: 743489-274-T-PDC complex spheroid viability
experiment: Anticancer human tumor 743489-274-T-PDC patient-derived renal cell carcinoma cell line growth inhibition
measurementContext: second compound 1 µM; first compound 0.316 µM; stronger effect = lower value
measuredQuantity: viability, T/C

Value of measured viability, T/C for the entry COc1ccc([C@@H](O)c2cc(-c3ncnc4cc(N5CCOCC5)ccc34)c(F)cc2Cl)nn1 + NC1CCC(NC2CC2c2ccccc2)CC1 : 101%

GET /value?item= O=C(c1cc(Cc2n[nH]c(=O)c3ccccc23)ccc1F)N1CCN(C(=O)C2CC2)CC1 + NC1CC1c1ccc(-c2cccc(O)c2)cc1 &field=viability, T/C returns 114%

// recorded viability, T/C for CC1COCCN1c1cc(-c2ccnn2C)c2ccnc(-c3ccn[nH]3)c2n1 (stereo not given) + NC1CCC(NC2CC2c2ccccc2)CC1 : 90.2%

viability, T/C reading for CC(C)c1c(-c2ccccc2)nc2c(C#N)c[nH]n2c1=O + NC1CCC(NC2CC2c2ccccc2)CC1 : 100%

// viability, T/C value for O=C(c1cc(Cc2n[nH]c(=O)c3ccccc23)ccc1F)N1CCN(C(=O)C2CC2)CC1 + NC1CCC(NC2CC2c2ccccc2)CC1 : 106%

###

Would you kindly list viability, T/C for each of these molecules?
Tested on: 743489-274-T-PDC complex spheroid viability
experiment: Anticancer human tumor 743489-274-T-PDC cell line growth inhibition;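 further: spheroids exposed to compounds for 7 days before readout; 100% = DMSO vehicle control wells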
measurementContext: second compound 0.1 µM; first compound 0.0949 µM; stronger effect = lower value
Field note: include the unit after the figure.

The value of viability, T/C recorded for COc1cc(C2c3cc4c(cc3C(OC3OC5COC(C)OC5C(O)C3O)C3COC(=O)C23)OCO4)cc(OC)c1O (centres undefined) + NC1CCC(NC2CC2c2ccccc2)CC1 when tested on 743489-274-T-PDC complex spheroid viability reads 112%

// assay 743489-274-T-PDC complex spheroid viability, entry O=C(C=Cc1cccc(S(=O)(=O)Nc2ccccc2)c1)NO + NC1CCC(NC2CC2c2ccccc2)CC1 , viability, T/C value = 84.1%

Short answer on 743489-274-T-PDC complex spheroid viability for O=C(C=Cc1cccc(S(=O)(=O)Nc2ccccc2)c1)NO + NC1CC1c1ccc(-c2cccc(O)c2)cc1 , viability, T/C: 93%

viability, T/C on 743489-274-T-PDC complex spheroid viability for CCc1c2c(nc3ccc(O)cc13)-c1cc3c(c(=O)n1C2)COC(=O)[C@]3(O)CC + NC1CC1c1ccc(-c2cccc(O)c2)cc1 is 36.4%

Known value: 743489-274-T-PDC complex spheroid viability viability, T/C of the molecule Nc1ccccc1NC(=O)c1ccc(CNC(=O)OCc2cccnc2)cc1 + NC1CC1c1ccc(-c2cccc(O)c2)cc1 equals 87.5%

Nc1ccccc1NC(=O)c1ccc(CNC(=O)OCc2cccnc2)cc1 + NC1CCC(NC2CC2c2ccccc2)CC1 on 743489-274-T-PDC complex spheroid viability gives viability, T/C = 83.7%

The measured viability, T/C that CCN(c1cc(-c2ccc(CN3CCOCC3)cc2)cc(C(=O)NCc2c(C)cc(C)[nH]c2=O)c1C)C1CCOCC1 + NC1CCC(NC2CC2c2ccccc2)CC1 showed for 743489-274-T-PDC complex spheroid viability is 101%

Reported 743489-274-T-PDC complex spheroid viability viability, T/C for item Nc1ncn(C2CC(O)C(CO)S2)c(=O)n1 (centres undefined) + NC1CC1c1ccc(-c2cccc(O)c2)cc1 was 76.2%

Entry Nc1ccn(C2OC(CO)C(O)C2(F)F)c(=O)n1 (centres undefined) + NC1CCC(NC2CC2c2ccccc2)CC1 : viability, T/C on 743489-274-T-PDC complex spheroid viability = 68.9%

###

Kindly supply the reported viability, T/C values for the records listed here.
System: 743489-274-T-PDC complex spheroid viability
experiment: Anticancer human tumor 743489-274-T-PDC cell line growth inhibition;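 further: spheroids exposed to compounds for 7 days before readout; 100% = DMSO vehicle control wells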
measurementContext: second compound 0.316 µM; first compound 1 µM; stronger effect = lower value
# output: bare number, implied unit %

Summary for this molecule, O=C(c1cc(Cc2n[nH]c(=O)c3ccccc23)ccc1F)N1CCN(C(=O)C2CC2)CC1 + NC1CCC(NC2CC2c2ccccc2)CC1 : viability, T/C is 107

Briefly, viability, T/C measured for CC1(C)CCC(CN2CCN(c3ccc(C(=O)NS(=O)(=O)c4ccc(NCC5CCOCC5)c([N+](=O)[O-])c4)c(Oc4cnc5[nH]ccc5c4)c3)CC2)=C(c2ccc(Cl)cc2)C1 + NC1CC1c1ccc(-c2cccc(O)c2)cc1 : 110

The reported viability, T/C of the molecule COc1ccc([C@@H](O)c2cc(-c3ncnc4cc(N5CCOCC5)ccc34)c(F)cc2Cl)nn1 + NC1CC1c1ccc(-c2cccc(O)c2)cc1 was 57.4

Please fill in: viability, T/C reported for COc1cc(Nc2ncc3c(n2)-c2ccc(Cl)cc2C(c2c(F)cccc2OC)=NC3)ccc1C(=O)O + NC1CC1c1ccc(-c2cccc(O)c2)cc1 = 80.5

// sample Nc1ncn(C2CC(O)C(CO)O2)c(=O)n1 (stereo unspecified) + NC1CC1c1ccc(-c2cccc(O)c2)cc1 , its viability, T/C was 95.3

CC1COCCN1c1cc(C2(S(C)(=N)=O)CC2)nc(-c2ccnc3[nH]ccc23)n1 (stereo unspecified) + NC1CC1c1ccc(-c2cccc(O)c2)cc1 has a reported viability, T/C of 101

COc1ccc([C@@H](O)c2cc(-c3ncnc4cc(N5CCOCC5)ccc34)c(F)cc2Cl)nn1 + NC1CCC(NC2CC2c2ccccc2)CC1 has a reported viability, T/C of 65.9

The molecule listed as CC1(C)CCC(CN2CCN(c3ccc(C(=O)NS(=O)(=O)c4ccc(NCC5CCOCC5)c([N+](=O)[O-])c4)c(Oc4cnc5[nH]ccc5c4)c3)CC2)=C(c2ccc(Cl)cc2)C1 + NC1CCC(NC2CC2c2ccccc2)CC1 has a reported viability, T/C of 109

Item: CC1COCCN1c1cc(-c2ccnn2C)c2ccnc(-c3ccn[nH]3)c2n1 (stereo unspecified) + NC1CCC(NC2CC2c2ccccc2)CC1 | viability, T/C: 62.7

# viability, T/C of CC1COCCN1c1cc(C2(S(C)(=N)=O)CC2)nc(-c2ccnc3[nH]ccc23)n1 (stereo unspecified) + NC1CCC(NC2CC2c2ccccc2)CC1 = 108

Measured viability, T/C of CC(C)c1c(-c2ccccc2)nc2c(C#N)c[nH]n2c1=O + NC1CC1c1ccc(-c2cccc(O)c2)cc1 : 100

###

Consider the following compounds; for each one, report its viability, T/C.
System: 743489-274-T-PDC complex spheroid viability
experiment: Anticancer human tumor 743489-274-T-PDC cell line growth inhibition;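 further: spheroids exposed to compounds for 7 days before readout; 100% = DMSO vehicle control wells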
measurementContext: second compound 0.1 µM; first compound 0.01 µM; stronger effect = lower value
# value in %; strip the unit string

For reference, reported viability, T/C for O=C(C=Cn1cnc(-c2cc(C(F)(F)F)cc(C(F)(F)F)c2)n1)NNc1cnccn1 + NC1CC1c1ccc(-c2cccc(O)c2)cc1 stands at 103

Cn1ncnc1C1c2n[nH]c(=O)c3cc(F)cc(c23)NC1c1ccc(F)cc1 (centres undefined) + NC1CCC(NC2CC2c2ccccc2)CC1 has a reported viability, T/C of 103

Value of viability, T/C reported for the compound Cn1ncnc1C1c2n[nH]c(=O)c3cc(F)cc(c23)NC1c1ccc(F)cc1 (centres undefined) + NC1CC1c1ccc(-c2cccc(O)c2)cc1 is 82.8

// viability, T/C value for CC[C@@]1(O)C(=O)OCc2c1cc1n(c2=O)Cc2cc3c(CN(C)C)c(O)ccc3nc2-1 + NC1CCC(NC2CC2c2ccccc2)CC1 : 89.5

###

System: 743489-274-T-PDC complex spheroid viability
experiment: Anticancer human tumor 743489-274-T-PDC cell line growth inhibition;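 further: spheroids exposed to compounds for 7 days before readout; 100% = DMSO vehicle control wells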
measurementContext: second compound 10 µM; first compound 1 µM; stronger effect = lower value
Field: viability, T/C. Provide a value for each of the molecules that follow.
Write down the numeric answer in % and omit the unit.

Form: item COc1ccc([C@@H](O)c2cc(-c3ncnc4cc(N5CCOCC5)ccc34)c(F)cc2Cl)nn1 + NC1CC1c1ccc(-c2cccc(O)c2)cc1 ; test system 743489-274-T-PDC complex spheroid viability; viability, T/C: 49.5

Result for COc1ccc([C@@H](O)c2cc(-c3ncnc4cc(N5CCOCC5)ccc34)c(F)cc2Cl)nn1 + NC1CCC(NC2CC2c2ccccc2)CC1 , tested on 743489-274-T-PDC complex spheroid viability, viability, T/C: 66.1

Log: 743489-274-T-PDC complex spheroid viability, molecule O=C(c1cc(Cc2n[nH]c(=O)c3ccccc23)ccc1F)N1CCN(C(=O)C2CC2)CC1 + NC1CCC(NC2CC2c2ccccc2)CC1 , viability, T/C = 119

743489-274-T-PDC complex spheroid viability assay, molecule COc1cc(Nc2ncc3c(n2)-c2ccc(Cl)cc2C(c2c(F)cccc2OC)=NC3)ccc1C(=O)O + NC1CC1c1ccc(-c2cccc(O)c2)cc1 , recorded viability, T/C = 78.4
